Entries and their LC50
Test system: A549
Assay Remarks: Cytotoxicity against human A549 cells after 48 hrs by SRB assay
Assay type: functional, cell-based
Condition: Homo sapiens, A549, 48 h
Write the answer as a number in nM, unit excluded.

1) C/C=C1\NC(=O)[C@H](Cc2ccccc2)NC(=O)[C@@H](C(C)C)NC(=O)[C@@H]([C@H](C)CC)NC(=O)[C@H](NC(=O)[C@H](NC(=O)[C@H](CCCN)NC(=O)[C@H]2CCCN2C(=O)[C@H](NC(=O)[C@@H](NC(=O)[C@@H](NC(=O)[C@@H](NC(=O)CCCC(C)C)C(C)C)[C@@H](C)O)C(C)C)C(C)C)[C@H](C)CC)[C@H](C)OC(=O)[C@H](C(C)C)NC1=O ... 1040
2) C/C=C1\NC(=O)[C@H](Cc2ccc(O)cc2)NC(=O)[C@@H](C(C)C)NC(=O)[C@@H]([C@H](C)CC)NC(=O)[C@H](NC(=O)[C@H](NC(=O)[C@H](CCCN)NC(=O)[C@H]2CCCN2C(=O)[C@H](NC(=O)[C@@H](NC(=O)[C@@H](NC(=O)[C@H](NC(=O)CC[C@@H](C)CC)C(C)C)[C@@H](C)O)C(C)C)C(C)C)[C@H](C)CC)[C@H](C)OC(=O)[C@H](C(C)C)NC1=O ... 1840

Prompt: Give the measured LC50 for `C/C=C1\NC(=O)[C@H](Cc2ccccc2)NC(=O)[C@@H](C(C)C)NC(=O)[C@@H]([C@H](C)CC)NC(=O)[C@H](NC(=O)[C@H](NC(=O)[C@H](CCCN)NC(=O)[C@H]2CCCN2C(=O)[C@H](NC(=O)[C@H](Cc2ccccc2)NC(=O)[C@@H](NC(=O)[C@H](NC(=O)CCCC(C)C)C(C)C)[C@@H](C)O)C(C)C)[C@H](C)CC)[C@H](C)OC(=O)[C@H](C(C)C)NC1=O`
Completion: 960

Prompt: Read off the recorded LC50 for `C/C=C1\NC(=O)[C@H](Cc2ccccc2)NC(=O)[C@@H](C(C)C)NC(=O)[C@@H]([C@H](C)CC)NC(=O)[C@H](NC(=O)[C@H](NC(=O)[C@H](CCCN)NC(=O)[C@H]2CCCN2C(=O)[C@H](NC(=O)[C@@H](NC(=O)[C@@H](NC(=O)[C@H](NC(=O)c2ccccc2)C(C)C)[C@@H](C)O)C(C)C)C(C)C)[C@H](C)CC)[C@H](C)OC(=O)[C@H](C(C)C)NC1=O`
Completion: 1120

Prompt: Provide only the value of recorded LC50 for `C/C=C1\NC(=O)[C@H](Cc2ccccc2)NC(=O)[C@@H](C(C)C)NC(=O)[C@@H]([C@H](C)CC)NC(=O)[C@H](NC(=O)[C@H](NC(=O)[C@H](CCCNC(=O)C[C@](OC)(c2ccccc2)C(F)(F)F)NC(=O)[C@H]2CCCN2C(=O)[C@H](NC(=O)[C@@H](NC(=O)[C@@H](NC(=O)[C@H](NC(=O)CCCC(C)C)C(C)C)[C@@H](C)O)C(C)C)C(C)C)[C@H](C)CC)[C@H](C)OC(=O)[C@H](C(C)C)NC1=O`
Completion: 1010

---

Test system: HT-29
Assay Remarks: Cytotoxicity against human HT29 cells after 48 hrs by SRB assay
Type: functional, cell-based
Condition: Homo sapiens, HT-29, 48 h
This listing pairs compounds with measured GI50.
Field: numeric (nM). Do not append units.

1) C/C=C1\NC(=O)[C@H](Cc2ccc(F)c(F)c2)NC(=O)[C@@H](C(C)C)NC(=O)[C@@H]([C@H](C)CC)NC(=O)[C@H](NC(=O)[C@H](NC(=O)[C@H](CCCN)NC(=O)[C@H]2CCCN2C(=O)[C@H](NC(=O)[C@@H](NC(=O)[C@@H](NC(=O)[C@H](NC(=O)CCCC(C)C)C(C)C)[C@@H](C)O)C(C)C)C(C)C)[C@H](C)CC)[C@H](C)OC(=O)[C@H](C(C)C)NC1=O ... 30.4

Prompt: Specify reported GI50 for the compound shown: `C/C=C1\NC(=O)[C@H](Cc2ccc(F)cc2)NC(=O)[C@@H](C(C)C)NC(=O)[C@@H]([C@H](C)CC)NC(=O)[C@H](NC(=O)[C@H](NC(=O)[C@H](CCCN)NC(=O)[C@H]2CCCN2C(=O)[C@H](NC(=O)[C@@H](NC(=O)[C@@H](NC(=O)[C@H](NC(=O)CC[C@@H](C)CC)C(C)C)[C@@H](C)O)C(C)C)C(C)C)[C@H](C)CC)[C@H](C)OC(=O)[C@H](C(C)C)NC1=O`
Completion: 452

---

Test system: A549
Assay Remarks: Cytotoxicity against human A549 cells after 48 hrs by SRB assay
Type: functional, cell-based
Endpoint: Activity

Prompt: Name the recorded Activity of the item `C/C=C1\NC(=O)[C@H](Cc2ccccc2)NC(=O)[C@@H](C(C)C)NC(=O)[C@@H]([C@H](C)CC)NC(=O)[C@H](NC(=O)[C@H](NC(=O)[C@H](CCCN)NC(=O)[C@H]2CCCN2C(=O)[C@H](NC(=O)[C@@H](NC(=O)[C@@H](NC(=O)[C@H](NC(=O)CCC)C(C)C)[C@@H](C)O)C(C)C)C(C)C)[C@H](C)CC)[C@H](C)OC(=O)[C@H](C(C)C)NC1=O` in your answer.
Completion: 3.48 ×10⁻⁶ M

Prompt: Look up and report measured Activity for this entry: `C/C=C1\NC(=O)[C@H](Cc2ccccc2)NC(=O)[C@@H](C(C)C)NC(=O)[C@@H]([C@H](C)CC)NC(=O)[C@H](NC(=O)[C@H](NC(=O)[C@H](CCCN)NC(=O)[C@H]2CCCN2C(=O)[C@H](NC(=O)[C@@H](NC(=O)[C@@H](NC(=O)[C@H](NC(=O)CCCO)C(C)C)[C@@H](C)O)C(C)C)C(C)C)[C@H](C)CC)[C@H](C)OC(=O)[C@H](C(C)C)NC1=O`
Completion: 6.89 ×10⁻⁶ M

Prompt: Supply reported Activity belonging to this compound: `C/C=C1\NC(=O)[C@H](Cc2ccccc2)NC(=O)[C@@H](C(C)C)NC(=O)[C@@H]([C@H](C)CC)NC(=O)[C@H](NC(=O)[C@H](NC(=O)[C@H](CCCN)NC(=O)[C@H]2CCCN2C(=O)[C@H](NC(=O)[C@@H](NC(=O)[C@@H](NC(=O)[C@H](NC(=O)/C=C/C=C/C)C(C)C)[C@@H](C)O)C(C)C)C(C)C)[C@H](C)CC)[C@H](C)OC(=O)[C@H](C(C)C)NC1=O`
Completion: 3.43 ×10⁻⁶ M

---

Test system: A549
Assay Remarks: Cytotoxicity against human A549 cells after 48 hrs by SRB assay
Type: functional, cell-based
Condition: Homo sapiens, A549, 48 h; read-out: GI50
GI50 values by entry
Dear colleague, please send the value followed by its unit.

1) CC[C@@H](C)[C@@H](NC(=O)[C@H](CCCN)NC(=O)[C@H]1CCCN1C(=O)[C@H](NC(=O)[C@@H](NC(=O)[C@@H](NC(=O)[C@H](NC(=O)CCCC(C)C)C(C)C)[C@@H](C)O)C(C)C)C(C)C)C(=O)N[C@H]1C(=O)N[C@H]([C@H](C)CC)C(=O)N[C@H](C(C)C)C(=O)N[C@@H](Cc2ccccc2)C(=O)N[C@H](CC)C(=O)N[C@@H](C(C)C)C(=O)O[C@H]1C ... 3230 nM
2) C/C=C1\NC(=O)[C@H](Cc2ccccc2)NC(=O)[C@@H](C(C)C)NC(=O)[C@@H]([C@H](C)CC)NC(=O)[C@H](NC(=O)[C@H](NC(=O)[C@H](CCCN)NC(=O)[C@H]2CCCN2C(=O)[C@H](NC(=O)[C@@H](NC(=O)[C@H](CCC(N)=O)NC(=O)[C@H](NC(=O)CCCC(C)C)C(C)C)C(C)C)C(C)C)[C@H](C)CC)[C@H](C)OC(=O)[C@H](C(C)C)NC1=O ... 1140 nM

In the following, a different compound is considered.
Prompt: Return value of GI50 for input `C/C=C1\NC(=O)[C@H](Cc2ccc3ccccc3c2)NC(=O)[C@@H](C(C)C)NC(=O)[C@@H]([C@H](C)CC)NC(=O)[C@H](NC(=O)[C@H](NC(=O)[C@H](CCCN)NC(=O)[C@H]2CCCN2C(=O)[C@H](NC(=O)[C@@H](NC(=O)[C@@H](NC(=O)[C@H](NC(=O)CCCC(C)C)C(C)C)[C@@H](C)O)C(C)C)C(C)C)[C@H](C)CC)[C@H](C)OC(=O)[C@H](C(C)C)NC1=O` , no commentary.
Completion: 110 nM

---

Tested on: A549
Assay Remarks: Cytotoxicity against human A549 cells after 48 hrs by SRB assay
Assay type: functional, cell-based
Condition: Homo sapiens, A549, 48 h
Endpoint: LC50 (nM)
Supply the numeric figure in nM, leaving out any unit text.

1. C/C=C1\NC(=O)[C@H](Cc2ccccc2)NC(=O)[C@@H](C(C)C)NC(=O)[C@@H]([C@H](C)CC)NC(=O)[C@H](NC(=O)[C@H](NC(=O)[C@H](CCCN)NC(=O)[C@H]2CCCN2C(=O)[C@H](NC(=O)[C@@H](NC(=O)[C@@H](NC(=O)[C@H](NC(=O)CCCC(C)C)C(C)C)[C@@H](C)O)C(C)C)C(C)C)[C@H](C)CC)CNC(=O)[C@H](C(C)C)NC1=O ... 1930

Alright, here's another compound for you.
Prompt: Please supply the value of reported LC50 for the item `C/C=C1\NC(=O)[C@H](Cc2ccccc2Cl)NC(=O)[C@@H](C(C)C)NC(=O)[C@@H]([C@H](C)CC)NC(=O)[C@H](NC(=O)[C@H](NC(=O)[C@H](CCCN)NC(=O)[C@H]2CCCN2C(=O)[C@H](NC(=O)[C@@H](NC(=O)[C@@H](NC(=O)[C@H](NC(=O)CCCC(C)C)C(C)C)[C@@H](C)O)C(C)C)C(C)C)[C@H](C)CC)[C@H](C)OC(=O)[C@H](C(C)C)NC1=O`
Completion: 1040
